# SYSTEM: T1, Mouse BSSL, recombinant (mouse, UniProt Q64285 21-599)
# T1 construct: Bought (R&D Systems, Cat. no 5658-CE); also called mBSSL; murine BSSL
# T1 sequence: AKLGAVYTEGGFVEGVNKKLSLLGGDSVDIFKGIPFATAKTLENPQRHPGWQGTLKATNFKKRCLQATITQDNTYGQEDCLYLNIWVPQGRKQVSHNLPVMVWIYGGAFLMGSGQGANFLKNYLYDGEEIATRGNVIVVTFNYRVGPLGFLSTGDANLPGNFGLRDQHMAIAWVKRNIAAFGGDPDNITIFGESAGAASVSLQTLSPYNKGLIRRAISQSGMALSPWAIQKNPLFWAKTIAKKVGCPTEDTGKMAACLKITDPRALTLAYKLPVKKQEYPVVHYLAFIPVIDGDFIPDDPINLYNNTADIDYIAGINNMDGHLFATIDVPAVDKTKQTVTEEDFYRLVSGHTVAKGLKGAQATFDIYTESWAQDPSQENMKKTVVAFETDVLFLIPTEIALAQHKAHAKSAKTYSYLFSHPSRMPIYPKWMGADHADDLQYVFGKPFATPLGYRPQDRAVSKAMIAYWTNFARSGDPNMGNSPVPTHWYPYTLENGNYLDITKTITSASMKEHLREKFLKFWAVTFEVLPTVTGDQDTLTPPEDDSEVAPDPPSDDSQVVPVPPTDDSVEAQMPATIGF
# PROTOCOL DETAILS: SPR steady state, hIgG4 S228P captured by anti-Fab
EXPERIMENTAL READOUT: Kd (nM)
The answer is to be given in nM; state only the numeric part.

Q. Looking for the measured Kd of S-SL048-116 hIgG4 S228P (antibody, V domains shown, also called mAb116) VH: QVQLVQSGAEVKKPGASVKVSCKASGYTFTSYNMHWVRQAPGQGLEWMGVINPGDGATSYAQKFKGRVTMTRDTSTSTVYMELSSLRSEDTAVYYCARDYYGSSPLGYWGQGTLVTVSS VL: DIQMTQSPSSLSASVGDRVTITCRASPSISYMNWYQQKPGKAPKLLIYATSSLASGVPSRFSGSGSGTDFTLTISSLQPEDFATYYCHQRSSSPTFGQGTKLEIKR , can you help?
A. 52

Q. May I ask what Kd has been recorded for S-SL048-115 hIgG4 S228P (antibody, V domains shown, Tested as human IgG4 S228P) VH: QVQLVQSGAEVKKPGASVKVSCKASGYTFTSYNMHWVRQAPGQGLEWMGVINPSDGATSYAQKFKGRVTMTRDTSTSTVYMELSSLRSEDTAVYYCARDYYGSSPLGYWGQGTLVTVSS VL: DIQMTQSPSSLSASVGDRVTITCRASQSISYMHWYQQKPGKAPKLLIYAASKLPSGVPSRFSGSGSGTDFTLTISSLQPEDFATYYCHQRSSSPTFGQGTKLEIK ?
A. 186

Q. Please look up its Kd: S-SL048-41 hIgG4 S228P (antibody, V domains shown, Tested as human IgG4 S228P) VH: QVQLVQSGAEVKKPGASVKVSCKASGYTFTSYNMHWVRQAPGQGLEWIGVIYPGDGATSYAQKFKGRVTMTRDTSTSTVYMELSSLRSEDTAVYYCARDYYGSSPLGYWGQGTLVTVSS VL: DIQMTQSPSSLSASVGDRVTITCRASSSISYMNWYQQKPGKAPKLLIYATSRLPSGVPSRFSGSGSGTDFTLTISSLQPEDFATYYCHQRSSSPTFGQGTKLEIK
A. 79
